tested on: LXRa homodimer (NR concentration 270 nM); assay: PBM binding z-score (relative to random genomic background probes); higher = stronger binding; sequences stand for … in GC…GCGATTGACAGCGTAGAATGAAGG
experimental_readout: PBM binding z-score
The reply should be a number, written without any unit.

The following sequences have reported results that may help.
1) CCTTACTGGTCACTCCAGGTTATAGCATCGGAGT = 1.95
2) CCGACTCGGGCAAGGTTACCATAACGCACAGCCA = -0.249
3) CGTCCAAGGCCAAGGTCAGTGAAAGAGACTCGAA = -0.343

[Q] Using known records, supply PBM binding z-score for CCTTACGGGTCACTGATAGGTTATAGCATTTGGA
[A] 0.473

[Q] Using known records, supply PBM binding z-score for AGAACGAGGGCACGCGGAGTTGATAGCAGAGTAG
[A] -0.442

---

As shown below, each of these sequences has a reported PBM binding z-score value.
system: PPARg DBDmut IVT, anti-PPARg (DBD mutation: PPARg1 K132A/R137A, NR concentration 270 nM); assay: PBM binding z-score (relative to random genomic background probes); higher = stronger binding; sequences stand for … in GC…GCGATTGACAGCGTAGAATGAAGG

The following sequences have reported results that may help.
1) CCTCGGAGAACAACAGGAGGTCAGAGCTGCCAGA = -1.85
2) CAAACTAGATCACGAAAGGTCAAAGTCGAATGAC = 2.11
3) GCTAGTTGGTCAGTAAACGGTCACACACCGGTCG = -0.0564
4) GCATATAGATAATACAAGGTGAAAGTCCGATTGT = 0.755

[Q] Using known records, supply PBM binding z-score for TCGAGTAGGTTACCAATGTGGCATTCAGCTTTCT
[A] -0.478

[Q] Using known records, supply PBM binding z-score for CCTTACGGGTCACGAGGATATAGCACGACGAGCG
[A] 0.884

---

system: PPARg homodimer (NR concentration 180 nM); assay: PBM binding z-score (relative to random genomic background probes); higher = stronger binding; sequences stand for … in GC…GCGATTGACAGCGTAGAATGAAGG
Decision: PBM binding z-score >= 0.8 yields Fulfilled, all other cases yield Not fulfilled.

1) ATCTCTAGGTAACAAGTACAGTGAAAGAGAGGAC = Not fulfilled

[Q] Determine whether measured PBM binding z-score meets or exceeds 0.8 for AGATGTAGGTTATCGGGTCATTCAGTTTGCGCAT
[A] Fulfilled

[Q] Determine whether measured PBM binding z-score meets or exceeds 0.8 for CTACCAAGGTGAACAAGGTCGTTGATTACTATTC
[A] Fulfilled

[Q] Determine whether measured PBM binding z-score meets or exceeds 0.8 for GGAAAGAGGGCATTCGAGTTGATAGCATGGCGAT
[A] Fulfilled

[Q] Determine whether measured PBM binding z-score meets or exceeds 0.8 for TTACCAAGGTGCAGGTCGTTGATCCCTCTGTAGA
[A] Not fulfilled

---

system: PPARg:RXRa 30nM:10nM, anti-RXR (NR concentration 30 nM, RXRa partner concentration 10 nM); experiment: PBM binding z-score (relative to random genomic background probes); higher = stronger binding; sequences stand for … in GC…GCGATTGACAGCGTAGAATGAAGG
experimental_readout: PBM binding z-score

1. CCTAGCAGGCCAGTCTGGGTCACTCAAGGCTTGA = -1.1
2. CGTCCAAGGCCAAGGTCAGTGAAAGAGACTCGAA = -0.305
3. GCGACTGGGGCATCAGCAGATTACCATAACTTAA = -0.24
4. ATATGTAGGCTAGCTGGGGTCATTCAGACTAGGC = 1.1
5. TGTCAAAGTTGAAAGGTAACGTAAGTATCCACAC = 2.72
6. ATCTCTAGGTAGAGATAGTTCAGTGAATGCAAAT = 0.0243

[Q] // fetch PBM binding z-score; item: GCAGACAGGTGAAACGCCGGTAACTCAGGGTGGC ; system: PPARg:RXRa 30nM:10nM, anti-RXR (NR concentration 30 nM, RXRa partner concentration 10 nM)
[A] -0.502

[Q] // fetch PBM binding z-score; item: CAAACTAGGTCAATGGTCAAAGTCGAGCCAACCA ; system: PPARg:RXRa 30nM:10nM, anti-RXR (NR concentration 30 nM, RXRa partner concentration 10 nM)
[A] 7.9
